meta.source: patent US10385097B2

Target: Human Factor D (Homo sapiens)
Construct: purified from human serum; purchased Complement Technology, Inc; host or cells: human serum (natural protein, not recombinant)
Experiment: Human Factor D Assay
Type: biochemical
Settings: Table 3; Human Factor D 80 nM, substrate Z-L-Lys-SBzl; read-out: (IC50 (Stars))
readoutLabel: IC50

1) CC(=O)c1cn(CC(=O)N2C[C@H](F)C[C@H]2C(=O)Nc2cccc(-c3ccccc3Cl)c2F)c2ccc(OCC[S+]([O-])CC(C)(CO)CO)cc12 (stereo partly drawn)
< 1 µM
2) CC(=O)c1cn(CC(=O)N2C[C@H](F)C[C@H]2C(=O)NCc2ccccc2)c2ccc(OCP(=O)(O)O)cc12
1 to 10 µM
3) Cc1cccc(NC(=O)[C@@H]2[C@H]3CC[C@H](C3)N2C(=O)Cn2cc(C(N)=O)c3cc(OCS(=O)(=O)NC(C)(C)C)ccc32)n1
> 10 µM

* * *

Molecular target: Human Factor D (Homo sapiens, UniProt P00746)
Construct: purified from human serum; purchased Complement Technology, Inc; host or cells: human serum (natural protein, not recombinant)
Sequence (P00746 26-253): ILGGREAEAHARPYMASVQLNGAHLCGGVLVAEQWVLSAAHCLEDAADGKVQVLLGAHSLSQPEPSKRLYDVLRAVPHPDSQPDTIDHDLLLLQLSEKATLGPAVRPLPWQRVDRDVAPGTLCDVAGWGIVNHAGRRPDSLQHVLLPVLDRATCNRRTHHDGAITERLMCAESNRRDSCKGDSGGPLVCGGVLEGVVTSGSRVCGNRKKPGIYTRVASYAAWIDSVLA
Assay: Human Factor D Assay
Assay type: biochemical
Settings: Table 3; Human Factor D 80 nM, substrate Z-L-Lys-SBzl; read-out: (IC50 (Stars))
Method: Example 8. Human Factor D Assay Human Factor D (purified from human serum, Complement Technology, Inc.) at 80 nM final concentration is incubated with test compound at various concentrations for 5 minutes at room temperature in 50 mM Tris, 1M NaCl, pH 7.5. A synthetic substrate Z-L-Lys-SBzl and DTNB (Ellman's reagent) are added to final concentrations of 100 μM each. Absorbance at 405 nm (A405) is recorded at 30 second intervals for 30 minutes using a microplate spectrophotometer. […]
pIC50: −log10 of the molar value.
Measured pIC50 accompanies every entry in the list below.
readoutLabel: pIC50

1. CC(=O)c1cn(CC(=O)N2C[C@H](F)C[C@H]2C(=O)NCCCc2ccccc2)c2ccc(OCS(=O)(=O)NC(C)(C)C)cc12
> 6.00
2. CC(=O)c1cn(CC(=O)N2C[C@H](F)C[C@H]2C(=O)Nc2cncc(Br)n2)c2ccc(Oc3ncc(F)cn3)cc12
> 6.00
3. CC(=O)c1cn(CC(=O)N2C[C@H](F)C[C@H]2C(=O)NCc2ccccc2)c2ccc(OCS(=O)(=O)NC(C)(C)C)cc12
> 6.00

* * *

Measured pIC50 accompanies every entry in the list below.
Target: Human Factor D (Homo sapiens, UniProt P00746)
Construct: purified from human serum; purchased Complement Technology, Inc; host or cells: human serum (natural protein, not recombinant)
Assay: Human Factor D Assay
Assay type: biochemical
Settings: Table 1; Human Factor D 80 nM, substrate Z-L-Lys-SBzl; read-out: IC50
Method: Example 8. Human Factor D Assay Human Factor D (purified from human serum, Complement Technology, Inc.) at 80 nM final concentration is incubated with test compound at various concentrations for 5 minutes at room temperature in 50 mM Tris, 1M NaCl, pH 7.5. A synthetic substrate Z-L-Lys-SBzl and DTNB (Ellman's reagent) are added to final concentrations of 100 μM each. Absorbance at 405 nm (A405) is recorded at 30 second intervals for 30 minutes using a microplate spectrophotometer. […]
pIC50: −log10 of the molar value.
readoutLabel: pIC50

1) CC(=O)c1cn(CC(=O)N2C[C@H](F)C[C@H]2C(=O)NCc2cccc(Cl)c2F)c2ccc(OCP(=O)(O)O)cc12
> 6.00
2) CC(=O)c1cn(CC(=O)N2C[C@H](F)C[C@H]2C(=O)Nc2cccc(-c3ccccc3Cl)c2F)c2ccc(Oc3cnc(C#N)nc3)cc12
> 6.00
3) CC(=O)c1cn(CC(=O)N2[C@@H]3C[C@@H]3C[C@H]2C(=O)NCc2cccc(Cl)c2F)c2cc(OCC3CC3)ccc12
> 6.00
4) CC(=O)c1cn(CC(=O)N2C[C@H](F)C[C@H]2C(=O)NCc2cccc(Cl)c2F)c2ccc(OS(=O)(=O)C(F)(F)F)cc12
> 6.00
5) CC(=O)c1cn(CC(=O)N2C[C@H](F)C[C@H]2C(=O)Nc2ccc(OC(F)(F)F)c(F)c2)c2cc(OCP(=O)(O)O)ccc12
> 6.00
6) CCC(=O)OC(OP(=O)(COc1ccc2c(C(C)=O)cn(CC(=O)N3C[C@H](F)C[C@H]3C(=O)NCc3cccc(Cl)c3F)c2c1)OC(OC(=O)CC)C(C)C)C(C)C (stereo partly drawn)
> 6.00
